We begin with a simple list: items and their reported Maximum water content (water dilution stability).
PROTOCOL: Water solubility/water dilution stability of tretinoin complexes
Format: physicochemical
PROTOCOL_CONDITIONS: water added until the solution appeared turbid
In your response, put the unit directly after the numeric value.

Here are 3 compounds together with their reported answers.
CC1=C(/C=C/C(C)=C/C=C/C(C)=C/C(=O)O)C(C)(C)CCC1.OCCNCCO.OCCNCCO.OCCNCCO [3[DEA][RA]]
93.7%
CC1=C(/C=C/C(C)=C/C=C/C(C)=C/C(=O)O)C(C)(C)CCC1.OCCNCCO.OCCNCCO.OCCNCCO.OCCNCCO [4[DEA][RA]]
94.1%
CC1=C(/C=C/C(C)=C/C=C/C(C)=C/C(=O)O)C(C)(C)CCC1.OCCNCCO.OCCNCCO [2[DEA][RA]]
91.4%

In the following, a different compound is considered.
Requested read-out: Maximum water content (water dilution stability). Entry: CC1=C(/C=C/C(C)=C/C=C/C(C)=C/C(=O)O)C(C)(C)CCC1.CC1=C(/C=C/C(C)=C/C=C/C(C)=C/C(=O)O)C(C)(C)CCC1.OCCNCCO.OCCNCCO.OCCNCCO.OCCNCCO.OCCNCCO [2.5[DEA][RA]] 92.5%
